Tested on: 885724-159-R-J1-PDC KRAS PDC multicell spheroid viability;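 further: spheroids exposed to agents for 7 days before readout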
measurement description: Anticancer human tumor 885724-159-R-J1-PDC patient-derived pancreatic adenocarcinoma cell line growth inhibition [KRAS2]
test context: curve of first compound; second compound 10 µM
Reported IC50 by item:
# output: bare number, implied unit nM

molecule="CC1COCCN1c1cc(-c2ccnn2C)c2ccnc(-c3ccn[nH]3)c2n1 (stereo not given) + CC1OCC2(CCN(c3cnc(Sc4ccnc(N)c4Cl)c(N)n3)CC2)C1N" measure_name=IC50 reported_value=236

Prompt: Please indicate recorded IC50 of CCNC(=O)CC1N=C(c2ccc(Cl)cc2)c2cc(OC)ccc2-n2c(C)nnc21 (stereo not given) + C=CC(=O)N1CCN(c2nc(=O)n(-c3c(C)ccnc3C(C)C)c3nc(-c4c(O)cccc4F)c(F)cc23)C(C)C1 measured with 885724-159-R-J1-PDC KRAS PDC multicell spheroid viability.
Completion: 352

Values were extracted from PubChem BioAssay AID1963861.
